Overview of recorded protein stability index for various sequences
- Tested on: Saccharomyces cerevisiae
- assay: protein stability index of tFT-peptide fusion (C-terminal peptide) (PSI (0-1 scale)); higher = more stable (slower turnover)
- stated_conditions: genetic background: das1 deletion; temperature: 30 C
Answer with a bare number; do not write a unit.

[
  {
    "sequence_text": "RKVVFERMETLE [MRPS16 C-terminal 12 aa]",
    "protein stability index": 0.686
  },
  {
    "sequence_text": "RVFEFLEKQKRE [MRPL40 C-terminal 12 aa]",
    "protein stability index": 0.722
  },
  {
    "sequence_text": "ILDMFAKRWILS [IZH3 C-terminal 12 aa]",
    "protein stability index": 0.697
  },
  {
    "sequence_text": "TGMGAAAIFIKE [POT1 C-terminal 12 aa]",
    "protein stability index": 0.688
  },
  {
    "sequence_text": "SFSDLTLHAIEY [BER1 C-terminal 12 aa]",
    "protein stability index": 0.724
  },
  {
    "sequence_text": "VKFVYRQRIALV [YLL037W C-terminal 12 aa]",
    "protein stability index": 0.577
  }
]

Here's the next entry for you.
Record VLVCFQTFILLQ [YDL032W C-terminal 12 aa] : what is its protein stability index with Saccharomyces cerevisiae? 0.152

###

Overview of recorded protein stability index for various sequences
- Tested on: Saccharomyces cerevisiae
- assay: protein stability index of tFT-peptide fusion (C-terminal peptide) (PSI (0-1 scale)); higher = more stable (slower turnover)
- stated_conditions: genetic background: wild type; temperature: 30 C
Answer with a bare number; do not write a unit.

[
  {
    "sequence_text": "CSPLIISDATSR",
    "protein stability index": 0.713
  }
]

Record SPPPRPLKLFPP : what is its protein stability index with Saccharomyces cerevisiae? 0.599

Can you check PPPHGPPPPPLP next? 0.648

Can you check ARSRLAPLSVLA next? 0.548

Can you check TNMTRWRIRVRD next? 0.676

###

- System: Saccharomyces cerevisiae
- assay: protein stability index of tFT-peptide fusion (C-terminal peptide) (PSI (0-1 scale)); higher = more stable (slower turnover)
- stated_conditions: genetic background: wild type; temperature: 30 C
So basically: protein stability index at 0.7 or higher? That is yes (1). Lower than 0.7? That is no (0).

Answered cases to consult:
[
  {
    "sequence_text": "SLCHLFYGSVEG",
    "qualitative_label": "no (0)"
  },
  {
    "sequence_text": "VIVHFIWPSVGR",
    "qualitative_label": "no (0)"
  },
  {
    "sequence_text": "PSALSSSAPSSP",
    "qualitative_label": "no (0)"
  },
  {
    "sequence_text": "EEEQGPSENEKT",
    "qualitative_label": "yes (1)"
  }
]

Assess whether reported protein stability index for LLHYPHVPLSPI sits at 0.7 or higher. no (0)

Can you check SLCVVIFFSSIT next? no (0)

Can you check FRSENSWLLCSW next? yes (1)

Can you check RLGFCGLGHRCE next? no (0)

Can you check CYKKRKKTNNYE next? no (0)

###

- System: Saccharomyces cerevisiae
- assay: protein stability index of tFT-peptide fusion (C-terminal peptide) (PSI (0-1 scale)); higher = more stable (slower turnover)
- stated_conditions: genetic background: wild type; temperature: 30 C
So basically: protein stability index at 0.4 or higher? That is yes (1). Lower than 0.4? That is no (0).

Answered cases to consult:
[
  {
    "sequence_text": "GGVCVRMECWMG",
    "qualitative_label": "yes (1)"
  },
  {
    "sequence_text": "GYRYMWLWRLSA",
    "qualitative_label": "no (0)"
  },
  {
    "sequence_text": "PSPVPPPSSPSP",
    "qualitative_label": "yes (1)"
  },
  {
    "sequence_text": "FCHFSSLVSVSL",
    "qualitative_label": "yes (1)"
  },
  {
    "sequence_text": "LFVFVLAGFCCV",
    "qualitative_label": "no (0)"
  }
]

Assess whether reported protein stability index for LSLLCFVASVVA sits at 0.4 or higher. no (0)

Can you check LWERRSRQLTMF next? no (0)

Can you check LCARVCITFNIV next? yes (1)

Can you check DWCACFFILLLA next? no (0)

Can you check LQVPTLRLFVFF next? no (0)

Can you check VVTFCCARVTKI next? yes (1)

Can you check SGWGCRMVVCAG next? no (0)

Can you check FFLLLVSVLSGW next? no (0)

Can you check LLSLLLDPLLCL next? yes (1)

###

- System: Saccharomyces cerevisiae
- assay: protein stability index of tFT-peptide fusion (C-terminal peptide) (PSI (0-1 scale)); higher = more stable (slower turnover)
- stated_conditions: genetic background: wild type; temperature: 30 C
test_readout: protein stability index
Answer with a bare number; do not write a unit.

[
  {
    "sequence_text": "FSGFGERFMISS",
    "measured_target": "Saccharomyces cerevisiae",
    "protein stability index": 0.692
  },
  {
    "sequence_text": "KLDDEVLFKRNI",
    "measured_target": "Saccharomyces cerevisiae",
    "protein stability index": 0.692
  },
  {
    "sequence_text": "GWGCARRRGGRV",
    "measured_target": "Saccharomyces cerevisiae",
    "protein stability index": 0.683
  },
  {
    "sequence_text": "LSTCVAESIEST",
    "measured_target": "Saccharomyces cerevisiae",
    "protein stability index": 0.68
  },
  {
    "sequence_text": "LLPYPAEPSPRR",
    "measured_target": "Saccharomyces cerevisiae",
    "protein stability index": 0.713
  }
]

Need protein stability index of TFFGEDVGVVVD , thanks. 0.697

Can you check HQRIKLMPEVWS next? 0.689

###

- Tested on: Saccharomyces cerevisiae
- assay: protein stability index of tFT-peptide fusion (C-terminal peptide) (PSI (0-1 scale)); higher = more stable (slower turnover)
- stated_conditions: genetic background: das1 deletion; temperature: 30 C
test_readout: protein stability index
Answer with a bare number; do not write a unit.

Before answering, review these 3 worked examples.
[
  {
    "sequence_text": "LGDAYVSSDEEF [YEF3 C-terminal 12 aa]",
    "reading": 0.683
  },
  {
    "sequence_text": "ANLRAYFGPGFT [BUD6 C-terminal 12 aa]",
    "reading": 0.719
  },
  {
    "sequence_text": "SGKFNGKKKSRR [FAF1 C-terminal 12 aa]",
    "reading": 0.693
  }
]

Need protein stability index of AKSEDISCVLII [YPL238C C-terminal 12 aa] , thanks. 0.711

###

- Tested on: Saccharomyces cerevisiae
- assay: protein stability index of tFT-peptide fusion (C-terminal peptide) (PSI (0-1 scale)); higher = more stable (slower turnover)
- stated_conditions: genetic background: wild type; temperature: 30 C
test_readout: protein stability index

Before answering, review these 3 worked examples.
[
  {
    "sequence_text": "LGMCGTCQREVG",
    "protein stability index": 0.708
  },
  {
    "sequence_text": "RSTTRSTLSLHV",
    "protein stability index": 0.701
  },
  {
    "sequence_text": "GARGGEGVSGGA",
    "protein stability index": 0.701
  }
]

Here's the next entry for you.
Need protein stability index of AMGSDRPPQSGY , thanks. 0.695

###

- Tested on: Saccharomyces cerevisiae
- assay: protein stability index of tFT-peptide fusion (C-terminal peptide) (PSI (0-1 scale)); higher = more stable (slower turnover)
- stated_conditions: genetic background: das1 deletion; temperature: 30 C
test_readout: protein stability index
Answer with a bare number; do not write a unit.

Need protein stability index of LISGVCLRVKVG , thanks. 0.452

Can you check CVEACVWYNAGL next? 0.662

Can you check LSARVFCFWFFS next? 0.549

###

- Test system: Saccharomyces cerevisiae
- assay: protein stability index of tFT-peptide fusion (C-terminal peptide) (PSI (0-1 scale)); higher = more stable (slower turnover)
- stated_conditions: genetic background: wild type; temperature: 30 C
test_readout: protein stability index
Answer with a bare number; do not write a unit.

Before answering, review these 3 worked examples.
[
  {
    "sequence_text": "PLPFSTSPYAGR",
    "test_readout": "protein stability index",
    "reading": 0.675
  },
  {
    "sequence_text": "SPTPRLGGPPPI",
    "test_readout": "protein stability index",
    "reading": 0.723
  },
  {
    "sequence_text": "RNRDKKGDMILK",
    "test_readout": "protein stability index",
    "reading": 0.691
  }
]

Here's the next entry for you.
Need protein stability index of EAHGQQESRCEQ , thanks. 0.7
